B1: CPEB3 Ribozyme (parent)
chain: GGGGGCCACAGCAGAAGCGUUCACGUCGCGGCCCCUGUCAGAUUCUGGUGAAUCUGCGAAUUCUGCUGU

variants of: B1; test: self-cleavage, relative activity (ratio to wild type); higher = more cleavage; co-transcriptional
experimental endpoint: self-cleavage

mutation_name=C33A experimental_endpoint=self-cleavage readout_value=0.916
mutation_name="A15C C34U" experimental_endpoint=self-cleavage readout_value=0.909
mutation_name="U26G C32U" experimental_endpoint=self-cleavage readout_value=0.922
mutation_name="C34A A60U" experimental_endpoint=self-cleavage readout_value=0.292
